procedure.details: Microsomal stability assay in liver microsomes
Type: in vitro ADME
assay.setup: rat, pH 7.4
measurement.label: half-life at 1 µM

smiles.structure: O=C(Nc1ccc(-c2cnc3ccccc3n2)cc1)C1CCN(S(=O)(=O)c2ccccc2Cl)CC1
measurement.label: half-life at 1 µM
observed.value: 26 min

----------
Each entry below carries its reported solubility.
procedure.details: Solubility assay
Type: physicochemical
assay.setup: sodium phosphate buffer, pH 7.4, aqueous buffer, kinetic from dmso stock
measurement.label: solubility

molecule: Cc1ncc(-c2ccc(NC(=O)C3CCN(S(=O)(=O)c4ccccc4Cl)CC3)cc2)cn1 [Compound 4i]
observed.value: 31 to 63 µM
--
molecule: O=C(Nc1ccc(-c2cnc(C(F)(F)F)nc2)cc1)C1CCN(S(=O)(=O)c2ccccc2Cl)CC1 [Compound 4k]
observed.value: 31 to 63 µM
--
molecule: COc1cnc(-n2nnnc2-c2ccc(NC(=O)C3CCN(S(=O)(=O)c4ccccc4Cl)CC3)cc2)c(OC)n1 [Compound 4q]
observed.value: 31 to 63 µM
